Would you mind telling me the reported Average Lu in tumor of each entry?
assay-explanation: Lu levels in tumor, kidney and liver of mice at 0.5 mg/kg
Value expressed in % ID/g; do not type the unit.

Lookup: I'd like to know its Average Lu in tumor. The compound in question is CCNC(=O)c1nnc(-c2cc(C(C)C)c(O)cc2O)n1-c1ccc(CN2CCN(C(=O)CCNC(=O)CC[C@@H](NC(=O)CC[C@@H]3C(=O)[O][Lu]4[O]C(=O)CN5CCN(CC(=O)O)CCN3CCN(CC5)CC(=O)[O]4)C(=O)N3CCN(Cc4ccc(-n5c(C(=O)NCC)nnc5-c5cc(C(C)C)c(O)cc5O)cc4)CC3)CC2)cc1 [Conjugate 9]
Found: 5.73

Lookup: Then CCNC(=O)c1nnc(-c2cc(C(C)C)c(O)cc2O)n1-c1ccc(CN2CCN(C(=O)CCNC(=O)[C@@H](CCC(=O)O)NC(=O)[C@@H](CCC(=O)O)NC(=O)[C@@H](CCC(=O)O)NC(=O)CN3CCN4CCN5CCN(CC3)CC(=O)[O][Lu]([O]C(=O)C4)[O]C(=O)C5)CC2)cc1 [Conjugate 2] ?
Found: 0.92

Lookup: Then CCNC(=O)c1nnc(-c2cc(C(C)C)c(O)cc2O)n1-c1ccc(CN2CCN(C(=O)CCNC(=O)[C@@H](CCC(=O)O)NC(=O)[C@@H](CCC(=O)O)NC(=O)[C@@H](CCC(=O)O)NC(=O)COCCOCCNC(=O)CCCCn3cc(CN(CCCNC(=O)CC[C@H](C(=O)O)N4CCN5CCN6CCN(CC4)CC(=O)[O][Lu]([O]C(=O)C6)[O]C(=O)C5)C(=O)CCCNC(=O)CCCc4ccc(I)cc4)nn3)CC2)cc1 [Conjugate 10] ?
Found: 8.49

Lookup: Then CCNC(=O)c1nnc(-c2cc(C(C)C)c(O)cc2O)n1-c1ccc(CN2CCN(C(=O)CN3CCN4CCN5CCN(CC3)CC(=O)[O][Lu]([O]C(=O)C5)[O]C(=O)C4)CC2)cc1 [Conjugate 1] ?
Found: 1.28
